The reported measurements were obtained from patent US20180072770A1.

Quick reference for IC50 among some binders
- testTarget: hemagglutinin of influenza A virus A/Mute swan/Germany/R901/06 K3141 H7N1 (influenza A virus A/Mute swan/Germany/R901/06 K3141 H7N1)
No end group written: not given here.
# output: bare number, implied unit µM

{"binder": "KKKKFYDYDVFY (not fully specified (C-terminus)) [reference peptide with SEQ ID NO:1 (FYDYDVFY), N-terminal (Lys)4, C-terminal amide]", "measureName": "IC50", "reported": 40}

Here is the next item to consider.
Q) Item under review: KKKKFYGYDVFF (not fully specified (C-terminus)) [peptide with SEQ ID NO:28, N-terminal (Lys)4, C-terminal amide] . Reported IC50?
A) 30
